Ref: PubChem BioAssay

Assay: E. coli acrAB mutant growth effects, primary screen, E. coli filamentation inducers, strain DRC39, OD650, 24 h (AID 1178);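 also: growth measured as culture turbidity by optical density at 650 nm; test concentration not given here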
Settings: higher = more signal, called active from +8 up or from −8 down
Quick reference: z-score of the listed items.
Lab note: jot the number down without any unit.

### Prompt Give z-score for the following compound: C[N+](C)(C)CCCC[C@@H]1NC(=O)[C@H]2C[C@@H](C(=O)NCCCCCCNC(=O)CS)[C@@H](c3cccc(OCCO)c3)N2C1=O
### Response 0.474

====

Quick reference: z-score of the listed items.
Assay: modulators of HCV replicon luciferase signal, primary screen, HCV replication inhibitor project, Huh7 cells, luciferase reporter (AID 1109);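 also: huh7 hepatoma cells harbouring a luciferase neomycin HCV replicon reporter; luciferase luminescence as measure of HCV replicon replication; test concentration not given here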
Details: 48 h, higher = more signal
Lab note: jot the number down without any unit.

Study these solved cases before continuing.
compound: CC1CC/C=C\[C@H]2OC34C=CCN(C(C)(C)C)C(=O)[C@H]3N(CCO)C(=O)[C@@H]4C2C(=O)O1 (some centres undefined)
readout.number: -0.106

compound: COC(=O)[C@@]1(Cc2ccccc2)[C@H]2c3cc(C(=O)N(C)C)n(Cc4ccsc4Br)c3C[C@H]2CN1C(=O)c1ccccc1
readout.number: -3.07

### Prompt Give z-score for the following compound: C=CC[C@@]1(C(=O)NCCN2CCOCC2)N=C(c2ccc(OCCCO)cc2)O[C@@H]1c1ccccc1N=[N+]=[N-]
### Response -1.23

### Prompt Give z-score for the following compound: O=C(c1ccccc1)N1C(=O)[C@]2(COC(c3ccc(OCCCO)cc3)=N2)Cc2ccccc21
### Response -1.14

### Prompt Give z-score for the following compound: CCCCCN1CC=CC23O[C@@H]4/C=C\CCC(C)OC(=O)C4[C@H]2C(=O)N(C(C)CO)[C@@H]3C1=O (some centres undefined)
### Response -0.862

====

Tested on: wheat germ agglutinin (Triticum aestivum), Alexa647-labelled
Assay: wheat germ agglutinin binders on compound microarrays, profiling panel, artefact control for SMM control-protein annotation, biochemical, small-molecule microarray, 635/667 nm fluorescence (AID 1140);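 also: score merges 667 nm feature emission with signal to noise over triplicate slides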
Conditions: WGA-A647 binding, 635 nm fluorescence, higher = more signal
quantity.name: composite z-score
Lab note: jot the number down without any unit.

molecule: Cc1ccccc1C(O)C1C=CC2C(=O)N(c3ccccc3)C(=O)C2N1Nc1ccc(C(C)C)cc1 (stereo unspecified)
composite z-score: 0.882
--
molecule: [N-]=[N+]=Nc1ccccc1[C@@H]1OC(c2ccc(OCCCO)cc2)=N[C@]1(Cc1ccccc1)C(=O)N1CCOCC1
composite z-score: 0.923
--
molecule: CC[C@@H]1C=C(C(=O)O)[C@H](c2ccc(Br)cc2)N1S(=O)(=O)c1ccc(C)cc1
composite z-score: 0.554
--
molecule: CC(C)C(O)C1C=CC2C(=O)NC(=O)C2N1Nc1ccc(Cl)cc1Cl (stereo unspecified)
composite z-score: 1.35
--
molecule: O=C1C2C=CC(C(O)Cc3ccccc3)N(n3cnnc3)C2C(=O)N1Cc1ccccc1 (stereo unspecified)
composite z-score: 1.31

### Prompt Give composite z-score for the following molecule: C=C(COC)/C(=C/C[C@H](OC(C)=O)c1ccc(CO)o1)c1cc(C(=O)OC)ccc1OC
### Response -0.199

====

Quick reference: composite z-score of the listed items.
Assay: binders of probe aFSTL3 on microarray, primary screen, stem cell growth factor project, biochemical, small-molecule microarray, fluorescence 635/667 (AID 1064);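 also: measures binding of the biotinylated anti-FSTL3 antibody to printed compounds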
Settings: higher = more signal
Lab note: jot the number down without any unit.

Study these solved cases before continuing.
smiles.input: CCCC=C(CCC)[C@@H](NC(=O)c1cccs1)c1ccc(C(F)(F)F)cc1
composite z-score: 0.251

smiles.input: CC(C)NC(=O)[C@@]1(c2ccc([N+](=O)[O-])cc2)CC(=O)N(C2CCCCC2)[C@@H]1c1ccc(CO)cc1I
composite z-score: 1.12

### Prompt Give composite z-score for the following compound: CNS(=O)(=O)c1ccc(C)cc1
### Response -0.366
